Molecular target: human recombinant adrenergic α2B receptor (Homo sapiens, UniProt P18089)
Construct: expressed in transfected cells; host or cells: CHO-K1
Sequence (P18089 whole entry): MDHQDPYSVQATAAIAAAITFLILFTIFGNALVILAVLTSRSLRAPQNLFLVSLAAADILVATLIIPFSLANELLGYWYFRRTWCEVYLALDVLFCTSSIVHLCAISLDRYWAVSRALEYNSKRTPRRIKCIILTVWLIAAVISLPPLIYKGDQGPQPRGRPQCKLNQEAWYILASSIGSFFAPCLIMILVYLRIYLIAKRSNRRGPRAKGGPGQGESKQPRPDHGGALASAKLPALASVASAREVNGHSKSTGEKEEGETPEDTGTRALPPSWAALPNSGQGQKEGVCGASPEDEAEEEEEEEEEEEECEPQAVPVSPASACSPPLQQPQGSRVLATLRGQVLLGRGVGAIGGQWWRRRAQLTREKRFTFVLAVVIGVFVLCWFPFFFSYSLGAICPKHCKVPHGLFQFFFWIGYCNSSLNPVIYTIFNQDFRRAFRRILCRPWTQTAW
Test: Radioligand binding, adrenergic α2B ([3H]Rauwolscine)
Conditions: 0.1 μM compound; read-out: Percentage inhibition of ligand binding, Adrenergic α2B
Protocol: To evaluate in radioligand binding assays the activity of compounds of the invention, human recombinant adrenergic α2B receptor expressed in Chinese hamster ovary (CHO) K1 cells (Uhlen, S. et al, Eur. J. Pharmacol. 343(1):93, 1998) in a modified Tris-HCl buffer (50 mM Tris-HCl, pH 7.4, 12.5 mM MgCl2, 1 mM EDTA, 0.2% BSA) was used. […] Receptor proteins were filtered and washed, the filters were then counted to determine [3H]Rauwolscine specifically bound. […]
// values below are reported inhibition at 0.1 µM
experimental.endpoint: inhibition at 0.1 µM (%)

>>> observed_value("Cc1csc(C2=C(n3c4c(c5cc(C)ccc53)CN(C)CC4)CCC2)c1")
81
>>> observed_value("C/C(=C\\n1c2c(c3cc(Cl)ccc31)CCN(C)CC2)c1cccc(F)c1")
95
>>> observed_value("C/C(=C\\n1c2c(c3cc(C)ccc31)CN(C)CC2)c1ccc(C)s1")
98
>>> observed_value("CSc1cccc(/C(C)=C/n2c3c(c4cc(C)ccc42)CN(C)CC3)c1")
94

* * *

target: rat adrenergic α1B receptor (Rattus norvegicus); construct: rat adrenergic α1B receptor obtained from Wistar Rat liver; from tissue; host or cells: Wistar rat liver; assay: Radioligand binding, adrenergic α1B ([3H]Prazosin); conditions: compound at 0.1 μM; [3H]Prazosin; repeat assays, each datapoint shown; read-out: Percentage inhibition of ligand binding, Adrenergic α1B
Sequence (P15823 whole entry): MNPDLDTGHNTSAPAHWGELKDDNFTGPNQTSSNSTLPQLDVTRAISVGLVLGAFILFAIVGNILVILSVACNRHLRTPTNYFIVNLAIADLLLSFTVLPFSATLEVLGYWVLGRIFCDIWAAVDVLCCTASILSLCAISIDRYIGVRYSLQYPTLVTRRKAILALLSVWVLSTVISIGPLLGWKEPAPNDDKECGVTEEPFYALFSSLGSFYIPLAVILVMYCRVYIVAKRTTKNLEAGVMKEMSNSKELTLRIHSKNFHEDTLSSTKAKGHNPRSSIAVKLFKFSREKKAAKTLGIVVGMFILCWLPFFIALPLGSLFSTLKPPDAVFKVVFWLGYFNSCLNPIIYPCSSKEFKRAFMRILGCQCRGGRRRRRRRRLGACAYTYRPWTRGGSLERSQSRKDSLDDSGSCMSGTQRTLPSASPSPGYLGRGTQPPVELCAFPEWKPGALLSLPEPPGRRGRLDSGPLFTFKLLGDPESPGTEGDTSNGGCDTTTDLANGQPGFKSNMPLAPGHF
experimental.endpoint: inhibition at 0.1 µM (%)

>>> observed_value("CCC1c2c(c3cc(C)ccc3n2CC(O)c2ccncc2)C2CCN1C2 (single isomer, unassigned) [36a]")
14
>>> observed_value("Cc1ccc2c(c1)c1c(n2/C=C/c2ccncc2)CCNC1 [compound 79]")
34
>>> observed_value("CN1CCc2c(c3cc(Cl)ccc3n2CC(O)c2cccnc2)C1 (stereo not shown) [compound 7]")
35
>>> observed_value("CN1CCc2c(c3ccc(C(F)(F)F)cc3n2CC(O)c2ccncc2)C1 (stereo not shown) [compound 65]")
-13
>>> observed_value("Cc1ccc2c(c1)c1c(n2CC(=O)c2cc[n+]([O-])cc2)CCN(C)C1 [compound 68]")
2
>>> observed_value("CN1CCc2c(c3cccc(Br)c3n2CC(O)c2ccncc2)C1 (single isomer, unassigned) [48a]")
16
>>> observed_value("CN1CCc2c(c3cc(Cl)ccc3n2CC(C)(O)c2ccncc2)C1 (stereo not shown) [compound 1]")
32
>>> observed_value("Cc1ccc2c(c1)c1c(n2CC(O)c2ccncc2)CCN(C)CC1 (stereo not shown) [compound 13]")
83
>>> observed_value("Cc1ccc2c(c1)c1c(n2CC(O)c2ccncc2)CN(C)CC1 (single isomer, unassigned) [8b]")
61
>>> observed_value("Cc1ccc2c(c1)c1c(n2CC(O)c2ccncc2)C(C)(C)CN(C)C1 (stereo not shown) [compound 71]")
11
>>> observed_value("Cc1ccc2c(c1)c1c(n2C2=C(c3cn[nH]c3)CCC2)CCN(C)C1 [compound 77]")
5
>>> observed_value("CN1CCc2c(c3cc(Cl)ccc3n2CCC(=O)OCC2CCCCC2)C1 [compound 87]")
5
>>> observed_value("Cc1ccc2c(c1)c1c(n2CC(O)c2ccncc2)CCNC1 (single isomer, unassigned) [39a]")
38
>>> observed_value("CN1CCc2c(c3cc(Cl)ccc3n2CC(C)(O)c2cccnc2)C1 (single isomer, unassigned) [31a]")
25
>>> observed_value("CN1CCc2c(c3cc(Cl)ccc3n2CC(C)(O)c2cccnc2)C1 (stereo not shown) [31b]")
3
>>> observed_value("CN1CCc2c(c3cc(C(F)(F)F)ccc3n2CC(O)c2cccnc2)C1 (single isomer, unassigned) [59a]")
11
>>> observed_value("CN1CCc2c(c3cc(C(F)(F)F)ccc3n2CC(O)c2ccncc2)C1 (stereo not shown) [compound 6]")
8
>>> observed_value("Cc1ccc2c(c1)c1c(n2CC(O)c2cc[n+]([O-])cc2)CCN(C)C1 (stereo not shown) [69a]")
4
>>> observed_value("Cc1ccc2c(c1)c1c(n2CC(O)c2ccncc2)CCNC1 (single isomer, unassigned) [39b]")
24
